This collection of values is drawn from patent US20200016159A1.

- measurement-target: human adenosine A2b receptor (Homo sapiens, UniProt P29275)
- assay-comment: Cellular in vitro reporter gene test for A2b receptor activity (antagonism of NECA)
- condition-summary: recombinant CHO-K1 cells, CRE-luciferase reporter, co-incubation with EC50 concentration of NECA, 3 hours
pIC50: −log10 of the molar value.
Each entry gets NO if its pIC50 stays under 8, and YES if its pIC50 is 8 or above.

COCCn1c(=O)n([C@H]2C[C@H](OC)C2)c(=O)c2c(C)c(CN3CCNC3=NC#N)sc21	NO
Cc1c(CN2CCNC2=O)sc2c1c(=O)n(C1CC1C)c(=O)n2CC1CCOC1 (single isomer, unassigned) [Example 292]	NO
Cc1c(CN2CCNC2=O)sc2c1c(=O)n(C1CC1(C)C)c(=O)n2CCCF (racemic) [Example 97]	NO
COC(=O)N=C1NCCN1Cc1sc2c(c1C)c(=O)n(C1CC1C)c(=O)n2CCOC(F)(F)F (racemic) [Example 267]	YES
CCCn1c(=O)n(C2CC2C)c(=O)c2c(C)c(CN3CCNC3=O)sc21 (single isomer, unassigned) [Example 228]	YES
Cc1c(Cn2[nH]ccc2=O)sc2c1c(=O)n(C1CC(F)(F)C1)c(=O)n2CCC(F)(F)F	NO
Cc1c(CN2CCNC2=O)sc2c1c(=O)n(C1(C)CC1)c(=O)n2C[C@H]1CCCO1	NO
Cc1c(Cn2nc[nH]c2=O)sc2c1c(=O)n(C1CC1C)c(=O)n2CCOC(F)(F)F (single isomer, unassigned) [Example 277]	YES

Lab note: next molecule to report on.
In: Reported pIC50 reaches at least 8 for Cc1c(Cn2[nH]ccc2=O)sc2c1c(=O)n(C1CC1)c(=O)n2CCC(F)(F)F ?
Out: NO

----------
- measurement-target: UniProtKB P29275
- Sequence (P29275 1-332): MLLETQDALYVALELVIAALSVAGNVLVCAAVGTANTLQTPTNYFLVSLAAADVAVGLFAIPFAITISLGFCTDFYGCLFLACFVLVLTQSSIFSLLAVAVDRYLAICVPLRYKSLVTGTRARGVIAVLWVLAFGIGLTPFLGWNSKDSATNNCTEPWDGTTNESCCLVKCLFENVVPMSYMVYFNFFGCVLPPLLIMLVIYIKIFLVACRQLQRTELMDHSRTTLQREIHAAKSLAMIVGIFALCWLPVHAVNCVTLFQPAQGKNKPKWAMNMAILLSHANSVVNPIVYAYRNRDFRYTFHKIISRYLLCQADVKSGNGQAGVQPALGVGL
- assay-comment: Cellular in vitro reporter gene test for A2b receptor activity (antagonism of NECA)
- condition-summary: recombinant CHO-K1 cells, CRE-luciferase reporter, co-incubation with EC50 concentration of NECA, 3 hours
List of pIC50 values.
To interpret pIC50, take it as minus log10 of a concentration measured in moles per litre.

In: Write down the reported pIC50 of COCCn1c(=O)n(C2(C)CC2)c(=O)c2c(C)c(Cn3nc[nH]c3=O)sc21 , test system: UniProtKB P29275.
Out: 7.07

----------
- measurement-target: human adenosine A2b receptor (Homo sapiens)
- Sequence (P29275 1-332): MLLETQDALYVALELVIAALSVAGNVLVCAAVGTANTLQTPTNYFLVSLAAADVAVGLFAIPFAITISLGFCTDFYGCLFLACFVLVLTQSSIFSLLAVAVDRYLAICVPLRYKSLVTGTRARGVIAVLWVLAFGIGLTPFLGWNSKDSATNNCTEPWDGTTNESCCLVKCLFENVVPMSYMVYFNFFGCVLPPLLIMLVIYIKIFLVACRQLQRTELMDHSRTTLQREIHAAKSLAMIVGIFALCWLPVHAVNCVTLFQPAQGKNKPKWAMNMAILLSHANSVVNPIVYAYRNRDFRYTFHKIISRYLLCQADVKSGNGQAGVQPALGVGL
- assay-comment: Cellular in vitro reporter gene test for A2b receptor activity (antagonism of NECA)
- Type: cell-based
- Design: expressed in transfected cells; host or cells: CHO-K1 (Chinese hamster ovary) with CRE-luciferase reporter
- condition-summary: recombinant CHO-K1 cells, CRE-luciferase reporter, co-incubation with EC50 concentration of NECA, 3 hours
property-name: IC50
Put down the number, then write its unit next to it.

Example cases with answers are listed next.
COCCn1c(=O)n(C2CC2OC)c(=O)c2c(C)c(CN3CCNC3=O)sc21 (racemic) [Example 306]	16 nM
COCCn1c(=O)n(C2CCC2)c(=O)c2c(C)c(CN3CCNC(=O)C3=O)sc21	14 nM
COC(=O)N=C1NCCN1Cc1sc2c(c1C)c(=O)n(C1CC1)c(=O)n2CC1CCCO1 (single isomer, unassigned) [Example 44]	16 nM

In the following, a different molecule is considered.
In: # query: IC50 of entry COCCn1c(=O)n(C2CC2)c(=O)c2c(C)c(CN3CCNC3=NC(=O)OC)sc21
Out: 8.3 nM
